Where these numbers come from: PubChem BioAssay AID1578

assay: NOD1 signaling inhibitors, primary screen, cell-based, luminescence, uHTS (AID 1578); conditions: NOD1-driven NF-kB luciferase reporter cells, at 4 µM, stronger effect = higher value;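 further: HEK-293T reporter cells stimulated with the NOD1 agonist gamma-tri-DAP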
The whole screen tested about 290,000 compounds, of which about 3,000 (1%) were called active. The sample holds actives, similar compounds and a random draw of the others, so the mix is not that of the screen.
Please respond with reported inhibition for every item in the list.
Numbers only, in %.

{"columns": ["compound", "unit.of.measurement", "number"],
 "data": [
  ["Cc1[nH][nH]c(=O)c1C(c1c(C)[nH][nH]c1=O)c1cn(Cc2ccc(Cl)c(Cl)c2)c2ccccc12", "%", -18.9],
  ["CCOC(=O)C1CCN(C(=O)CCCn2nc(C)c3c(C)n(-c4ccc(C)cc4)nc3c2=O)CC1", "%", -4.8],
  ["O=C1C(=C2SCCCS2)CC/C1=C\\c1ccc(F)cc1", "%", 76.9]
]}

Prompt: Need inhibition of COc1ccc(C(NC(C)=O)c2cc(Cl)c3cccnc3c2O)cc1 (centres undefined) , thanks.
Completion: -6.4
